Target: KRAS G12D (Homo sapiens, UniProt P01116, G12D)
Construct: aa1-188 KRAS WT, HRAS WT, NRAS WT, or KRAS containing the G12D
Sequence (P01116 1-188 isoform P01116-2 G12D): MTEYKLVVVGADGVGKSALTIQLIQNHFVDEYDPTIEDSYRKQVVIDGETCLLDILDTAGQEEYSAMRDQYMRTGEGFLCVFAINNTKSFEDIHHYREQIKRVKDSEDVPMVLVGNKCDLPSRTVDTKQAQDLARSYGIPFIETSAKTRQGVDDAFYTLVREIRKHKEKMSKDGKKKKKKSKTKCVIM
Assay: HTRF nucleotide exchange assay, KRAS G12D
Settings: HTRF nucleotide exchange assay (NEA), class symbols
RECORDED ENDPOINT: IC50

Known results for compounds:
{"COMPOUND": "CCc1c(F)ccc2cc(O)cc(-c3c(F)c4nc(OCC56COC(COC)(C5)C6)nc(N5CCOCC(C)(O)C5)c4c4cn(C)nc34)c12 (stereo not drawn) [Example 165]", "TARGET OF ASSAY": "KRAS G12D (Homo sapiens, UniProt P01116, G12D)", "TEST RESULT": "≤ 0.01 µM"}
{"COMPOUND": "CCc1c(F)ccc2cc(O)cc(-c3cc4nc(OCC5(CN6CCOCC6)CC5)nc(N5CCCn6nc(C(=O)N(C)C)cc6C5)c4c4cn(C)nc34)c12 [Example 69]", "TARGET OF ASSAY": "KRAS G12D (Homo sapiens, UniProt P01116, G12D)", "TEST RESULT": "≤ 0.01 µM"}
{"COMPOUND": "CCc1c(F)ccc2cc(O)cc(-c3c(F)c4nc(OC[C@]5(C)CCCN5)nc(N5CCOCC(C)(O)C5)c4c4cn(C)nc34)c12 (stereo partly drawn) [Example 159]", "TARGET OF ASSAY": "KRAS G12D (Homo sapiens, UniProt P01116, G12D)", "TEST RESULT": "≤ 0.01 µM"}

QUERY: Report IC50 for CCc1c(F)ccc2cc(O)cc(-c3c(F)c4nc(OC[C@@]56CCCN5C[C@H](F)C6)nc(N5CCOC[C@@](C)(O)C5)c4c4cn(C)nc34)c12 [Example 109] please.
RESULT: ≤ 0.01 µM

QUERY: Which IC50 value is on record for CCc1c(F)ccc2cc(O)cc(-c3cc4nc(OCC56CCCN5CCC6)nc(N5CCCOCC5)c4c4cn(C)nc34)c12 [Example 6] ?
RESULT: ≤ 0.01 µM

QUERY: Fill in: IC50 of CCc1c(F)ccc2cc(O)cc(-c3c(F)c4nc(OC[C@@]56CCCN5C[C@H](F)C6)nc(N5CCC(O)CC5)c4c4cn(C)nc34)c12 [Example 177] is ___
RESULT: ≤ 0.01 µM

QUERY: Any idea what IC50 was measured for CCc1c(F)ccc2cc(O)cc(-c3c(F)c4nc(OC[C@@]56CCCN5C[C@H](F)C6)nc(N5CCOC[C@](C)(O)C5)c4c4cn(C)nc34)c12 [Example 110] ?
RESULT: ≤ 0.01 µM

QUERY: Requested read-out: IC50. Entry: CCc1c(F)ccc2cc(O)cc(-c3c(F)c4nc(OCC5(CN6CCOC(C(F)(F)F)C6)CC5)nc(N5CCOCC(C)(O)C5)c4c4cn(C)nc34)c12 (stereo not drawn) [Example 219]
RESULT: 0.1 to 10 µM

QUERY: Query (compound): CCc1c(F)ccc2cc(O)cc(-c3c(F)c4nc(OCC5(CN6CC[C@H](O)C6)CC5)nc(N5CCOCC(C)(O)C5)c4c4cn(C)nc34)c12 (stereo partly drawn) [Example 190] ; field requested: IC50
RESULT: ≤ 0.01 µM

QUERY: Would you kindly share the measured IC50 for CCc1c(F)ccc2cc(O)cc(-c3c(F)c4nc(OCC5(CN6CCC(F)(F)C6)CC5)nc(N5CCOCC(C)(O)C5)c4c4cn(C)nc34)c12 (stereo not drawn) [Example 189] ?
RESULT: 0.01 to 0.1 µM

QUERY: Requested field: IC50. Item: CCc1c(F)ccc2cc(O)cc(-c3cc4nc(OC[C@@]56CCCN5C[C@H](F)C6)nc(N5CCCn6nccc6C5)c4c4cn(C)nc34)c12 [Example 59]
RESULT: ≤ 0.01 µM

QUERY: Give its IC50 value. Item: CCc1c(F)ccc2cc(O)cc(-c3c(C)c4nc(OCC5(CF)COC5)nc(N5CC6CCC(C5)N6)c4c4cn(C)nc34)c12 [Example 247]
RESULT: ≤ 0.01 µM

Value source: patent US20260347364A1
